- procedure details: Urinary excretion kinetics of temephos metabolites after a single oral dose of temephos
- Assay type: in vivo, adult male Wistar rats
- experimental parameters: male, Wistar, rat, urine, po, 300 mg/kg, urine, male adult rats, single oral dose of temephos 300 mg/kg; read-out: KElim-U 1st Phase (converted)
readout kind: k el (s⁻¹)

{"columns": ["compound", "readout kind", "data value"],
 "data": [
  ["Oc1ccc(Sc2ccc(O)cc2)cc1 [TDP, 4,4′-thiodiphenol]", "k el", "6.93e-06"]
]}

* * *

- procedure details: Urinary excretion kinetics of temephos metabolites after a single oral dose of temephos
- Assay type: in vivo, adult male Wistar rats
- experimental parameters: male, Wistar, rat, urine, po, 300 mg/kg, urine, male adult rats, single oral dose of temephos 300 mg/kg; read-out: t1/2 Elim-U 1st Phase (converted)
- Experimental: Animals were individually housed in acrylic metabolism cages for the collection of urine for 8:16 h cycles (inside and outside the cage) for their adaptation during 8 d before treatment. […] Temephos urinary metabolites were enzymatically deconjugated, according to Cruz-Hurtado et al., with some modifications. […] To determine the optimal concentration of deconjugated temephos metabolites in the enzymatic hydrolysis assay, the concentration of β-glucuronidase/sulfatase was assessed from 250 to 4000 IU/mL. […]
readout kind: half-life (h)

{"columns": ["mol", "readout kind", "scale unit", "data value"],
 "data": [
  ["Oc1ccc(Sc2ccc(O)cc2)cc1", "half-life", "h", 27.8]
]}

* * *

- procedure details: Urinary excretion kinetics of temephos metabolites after a single oral dose of temephos
- Format: in vivo, adult male Wistar rats
- experimental parameters: male, Wistar, rat, urine, po, 300 mg/kg, urine, male adult rats, single oral dose of temephos 300 mg/kg; read-out: t1/2 Elim-U 2nd Phase (converted)
readout kind: half-life

{"columns": ["compound", "data value"],
 "data": [
  ["Oc1ccc(Sc2ccc(O)cc2)cc1 [TDP, 4,4′-thiodiphenol]", "272 h"],
  ["O=S(=O)(c1ccc(O)cc1)c1ccc(O)cc1 [BPS, 4,4′-sulfonyldiphenol]", "17.7 h"]
]}
